Hello, the source for this data is ChEMBL document CHEMBL4513216, in case you need it.

Test: Toxicity liver stage against HepG2, at 10uM
Format: cell-based
Parameters: test concentration 10 uM, cell line HepG2-A16-CD81EGFP
Settings: human, HepG2-A16-CD81EGFP cells; read-out: INHIBITION

>  <MOLECULE>
c1ccc(-c2nnc(CN3CCOC(Cn4cccn4)C3)o2)cc1 (centres undefined)

>  <cytotoxicity at 10 µM, %>
-2.48

$$$$
>  <MOLECULE>
Cn1cccc1C(=O)N1CCC2(CC1)COC(COc1ccccn1)C2 (centres undefined)

>  <cytotoxicity at 10 µM, %>
1.48

$$$$
>  <MOLECULE>
CCOc1ccc(CNC(C)c2ccc3[nH]c(=O)[nH]c3c2)cc1 (centres undefined)

>  <cytotoxicity at 10 µM, %>
-7.79

$$$$
>  <MOLECULE>
CN1CC[C@]2(CN(Cc3cccs3)C[C@H]2c2ccccc2)C1=O

>  <cytotoxicity at 10 µM, %>
9.82

$$$$
